biological target: UGT1A9 (Homo sapiens, UniProt O60656); details: pH 7.4
Sequence (O60656 26-530): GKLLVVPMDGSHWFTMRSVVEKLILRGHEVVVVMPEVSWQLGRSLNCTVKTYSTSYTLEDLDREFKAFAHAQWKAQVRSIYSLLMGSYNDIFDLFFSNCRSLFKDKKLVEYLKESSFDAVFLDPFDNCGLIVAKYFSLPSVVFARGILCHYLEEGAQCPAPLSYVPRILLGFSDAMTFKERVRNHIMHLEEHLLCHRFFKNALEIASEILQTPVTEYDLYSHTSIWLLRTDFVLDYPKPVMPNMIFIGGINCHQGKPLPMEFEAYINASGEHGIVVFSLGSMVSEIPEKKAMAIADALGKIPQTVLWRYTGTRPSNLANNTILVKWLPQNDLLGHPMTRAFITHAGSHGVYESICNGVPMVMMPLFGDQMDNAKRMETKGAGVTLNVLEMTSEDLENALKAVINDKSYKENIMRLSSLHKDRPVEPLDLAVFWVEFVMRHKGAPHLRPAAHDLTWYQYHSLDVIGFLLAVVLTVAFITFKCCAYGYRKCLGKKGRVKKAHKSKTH
// reported log10 of Km per item
All values: log10 Km [µM].

// below: answered compounds
- COMPOUND: "Oc1ccc(N=Nc2ccccc2)cc1 [compound 124, 4-Phenylazophenol]"
  RECORDED MEASUREMENT: 1.92
- COMPOUND: "O=C1c2ccc(O)cc2OCC1c1ccc(O)cc1 (centres unmarked) [compound 102, Dihydrodaidzein]"
  RECORDED MEASUREMENT: 1.89
- COMPOUND: "COc1cc(/C=C/C(=O)O)ccc1O [compound 95, Ferulic Acid]"
  RECORDED MEASUREMENT: 2.95

Note to self: log10 of Km recorded for COc1ccc(-c2coc3cc(O)cc(O)c3c2=O)cc1 [compound 100, Biochanin A] was 0.05

Note to self: log10 of Km recorded for O=c1cc(-c2cccc(O)c2)oc2cc(O)c(O)cc12 [compound 36, 6,7,3′-Trihydroxflavone] was 0.48

Note to self: log10 of Km recorded for Cc1cc(O)cc2oc(-c3ccccc3)cc(=O)c12 [compound 48, 7-Hydoxy-5-methylflavone] was -0.03

Note to self: log10 of Km recorded for O=c1c(O)c(-c2ccccc2)oc2ccc(O)cc12 [compound 65, 3,6-Dihydroxyfavone] was -0.21

Note to self: log10 of Km recorded for O=c1c(O)c(-c2ccc(O)cc2)oc2ccccc12 [compound 64, 3,4′-Dihydroxyfavone] was -0.89
